biological target: GST-tagged KRAS-G12D (2-169) (Homo sapiens, UniProt P01116, G12D); experiment: Nucleotide exchange assay (NEA), SOS-mediated, HTRF, KRAS G12D; assay type: biochemical; conditions: Table 4; IC50 extracted at 30 min; 20 nM SOScat; read-out: NEA G12D IC50
Sequence (P01116 2-169 isoform P01116-2 G12D): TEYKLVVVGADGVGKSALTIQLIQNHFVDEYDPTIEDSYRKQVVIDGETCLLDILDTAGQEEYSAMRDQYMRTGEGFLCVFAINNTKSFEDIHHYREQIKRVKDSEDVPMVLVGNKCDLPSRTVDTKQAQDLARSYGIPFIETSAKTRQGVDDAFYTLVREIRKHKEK
The reader will find reported IC50 values listed item by item below.

compound	IC50
CCN(CC1(C#N)CC1)c1nc(OC[C@@]23CCCN2C[C@H](F)C3)nc(N2CC3(C2)SCc2sc(N)c(C#N)c23)n1	< 10 nM
C[C@H](c1cccnc1N)N(C)c1nc(OC[C@@]23CCCN2C[C@H](F)C3)nc(N2CCC3(CCCc4sc(N)c(C#N)c43)C2=O)n1 (single isomer, unassigned) [Compound 175B]	100 to 1000 nM
CCN(CC#N)c1nc(OC[C@@]23CCCN2C[C@H](F)C3)nc(N2CC3(C2)SCc2sc(N)c(C#N)c23)n1	< 10 nM
N#Cc1c(N)sc2c1C1(CN(c3nc(OCC4(CN5CCOCC5)CC4)nc(N4CCNC[C@@H]4C(F)F)n3)C1)SC2	< 10 nM
N#Cc1c(N)sc2c1C1(CC2)CN(c2nc(OCC3(CN4CCOCC4)CC3)nc(N3CCCC(C#N)C3)n2)C1 (stereo not drawn)	100 to 1000 nM
N#Cc1c(N)sc2c1C1(CC2)CN(c2nc(OCC3(CN4CCOCC4)CC3)nc(N3CCCCC(C#N)C3)n2)C1 (stereo not drawn)	10 to 100 nM
N#Cc1c(N)sc2c1C1(CN(c3nc(OC[C@@]45CCCN4C[C@H](F)C5)nc(N(CCO)C4(C#N)CC4)n3)C1)SC2 (racemic)	< 10 nM
CCN(c1nc(OC[C@@]23CCCN2C[C@H](F)C3)nc(N2CC3(C2)SCc2sc(N)c(C#N)c23)n1)C(C)c1cccnc1N (stereo partly drawn)	< 10 nM
N#Cc1c(N)sc2c1C1(CC2)CN(c2nc(OCC3(CN4CCOCC4)CC3)nc(N3C[C@H]4CC[C@@H](C3)N4)n2)C1	< 10 nM
N#Cc1c(N)sc2c1C1(CC2)CN(c2nc(OCC3(CN4CCOCC4)CC3)nc(N3CCCC(O)(CO)C3)n2)C1 (stereo not drawn)	10 to 100 nM
C[C@H](c1cccnc1N)N(C)c1nc(OC[C@@]23CCCN2C[C@H](F)C3)nc(N2CC3(CCCc4sc(N)c(C#N)c43)C2)n1	< 10 nM
C[C@H](c1cccnc1N)N(CCF)c1nc(OC[C@@]23CCCN2C[C@H](F)C3)nc(N2CC3(C2)SCc2sc(N)c(C#N)c23)n1	< 10 nM
C[C@@]1(O)CCCN(c2nc(OC[C@@]34CCCN3C[C@H](F)C4)nc(N3CC4(C3)c3c(sc(N)c3C#N)CC4(F)F)n2)C1	< 10 nM
N#Cc1c(N)sc2c1C1(CC2)CN(c2nc(OC[C@@]34CCCN3C[C@H](F)C4)nc(N3CCSc4ncccc4C3)n2)C1	1000 to 20000 nM
CN(CC(=O)NC(=N)N)c1nc(OC[C@@]23CCCN2C[C@H](F)C3)nc(N2CC3(C2)SCc2sc(N)c(C#N)c23)n1	100 to 1000 nM
